The reported numbers originate from the kinase profiling compilation of Christmann-Franck et al. (2016).

target: PTK2 (human); experiment: radiometric filter-binding kinase assay, Kinase HotSpot; conditions: compound 0.5 µM; ATP 10 µM
residual activity reference
QUANTITY_KIND: residual activity (%)

STRUCTURE	QUANTITY_KIND	UNIT_OF_MEASUREMENT	RECORDED_NUMBER
CC(C)(C)c1cc(C=C(C#N)C#N)cc(Br)c1O	residual activity	%	107
N#Cc1c[nH]c2c[nH]/c(=N\Cc3cccnc3)cc2/c1=N\c1ccc(F)c(Cl)c1	residual activity	%	99.6
Cn1c2ccccc2c2c3c(c4c5ccccc5n(CCC#N)c4c21)CNC3=O	residual activity	%	77
N#C/C(=C\c1ccc(O)c(O)c1)C(=O)NCc1ccccc1	residual activity	%	96.9
CN(C)c1ccc(/C=C2\C(=O)Nc3ccccc32)cc1	residual activity	%	104
COc1cc(Nc2c(C#N)cnc3cc(OCCCN4CCN(C)CC4)c(OC)cc23)c(Cl)cc1Cl	residual activity	%	96
COc1ccc(C(=O)Nc2sc3c(c2C(N)=O)CCCC3)cc1OC	residual activity	%	116
CN(C)S(=O)(=O)c1ccc2c(c1)/C(=C/c1cc3c([nH]1)CCCC3)C(=O)N2	residual activity	%	33.1
Cc1cncc2cccc(S(=O)(=O)N3CCCN(C(=O)CN)C[C@H]3C)c12	residual activity	%	78
O=C1C(Cl)=C(N2C(=O)CCC2=O)C(=O)c2ccccc21	residual activity	%	98.4
COc1ccc(Cl)cc1NC(=O)Nc1cc(C)nc2ccccc12	residual activity	%	97.3
COc1ccc(S(=O)(=O)N(CCO)c2ccccc2CN(C)C/C=C/c2ccc(Cl)cc2)cc1	residual activity	%	104
O=C(c1cc2cc(O)ccc2[nH]1)c1cc2cc(O)ccc2[nH]1	residual activity	%	109
c1ccc2c(-c3ccncc3)c[nH]c2c1	residual activity	%	97.7
CN(C)CCCn1cc(C2=C(c3c[nH]c4ccccc34)C(=O)NC2=O)c2ccccc21	residual activity	%	86.1

====

The molecules listed here are annotated with their residual activity.
biological target: EPHA2 (human); assay: radiometric filter-binding kinase assay, Kinase HotSpot; details: compound 0.5 µM; ATP 10 µM

STRUCTURE	residual activity (%)
CO[C@@H]1[C@H](N(C)C(=O)c2ccccc2)C[C@H]2O[C@]1(C)n1c3ccccc3c3c4c(c5c6ccccc6n2c5c31)C(=O)NC4	92.3
Cc1nc(-c2ccccc2)c(-c2ccncc2)o1	104
c1ccc2c(-c3ccncc3)c[nH]c2c1	106
N#C/C(=C\c1ccc(O)c(O)c1)C(=O)NCc1ccccc1	105
COc1ccc2c(c1)c(C1=C(c3c[nH]c4ccccc34)C(=O)NC1=O)cn2CCCN(C)C	91.3
Cn1c2ccccc2c2c3c(c4c5ccccc5n(CCC#N)c4c21)CNC3=O	92.5
C[C@@H]1CCN(C(=O)CC#N)C[C@@H]1N(C)c1ncnc2[nH]ccc12	95.8
CN(C)c1ccc(/C=C2\C(=O)Nc3ccccc32)cc1	107
O=C1c2ccccc2-c2nc3nnnn3nc21	100
O=C(c1cc2cc(O)ccc2[nH]1)c1cc2cc(O)ccc2[nH]1	101
Cc1cccc(-c2nc(C(C)(C)C)[nH]c2-c2ccc3c(c2)OCO3)n1	99.2
Fc1ccc(-c2nc3n(c2-c2ccncc2)CCS3)cc1	107
COc1cc2ncnc(Nc3ccc(Oc4ccccc4)cc3)c2cc1OC	106
O=C1Nc2ccc(Br)cc2/C1=C\c1cc2c([nH]1)CCCC2	110
